- Protocol description: Cytotoxicity counterscreen for inhibitors of SARS-CoV-2 cell entry (AID 1645845); note: nearly all actives have a fitted effect of over 50% in size
- Study conditions: cell viability (SARS-CoV-2 entry assay cells); series mostly up to 57.1 µM
Inconclusive results are not listed. Active and inactive are the calls of the source. Calls come from the whole dose curve.
Classes used: 1.0 = active, 0.0 = inactive

CO/N=C(/C(=O)N[C@@H]1C(=O)N2C(C(=O)O)=CCS[C@H]12)c1csc(N)n1 ... 0.0
Nc1nc(-n2cc(C(=O)O)c(=O)c3cc(F)c(N4CC(O)C4)c(Cl)c32)c(F)cc1F ... 0.0
C=CC(=O)Nc1ccc2ncnc(Nc3cccc(Br)c3)c2c1 ... 1.0
CCS(=O)(=O)N1CCN(c2ccc(Nc3ncc(C(N)=O)c(NC4CC4)n3)cc2)CC1 ... 1.0
CCC(=O)O[C@H]1CC[C@H]2[C@@H]3CC[C@H]4CC(=O)[C@H](C)C[C@]4(C)[C@H]3CC[C@]12C ... 0.0
C[N+](C)(C)CC(O)CC(=O)O (centres undefined) ... 0.0
C[C@H](NC(=O)c1c(N)nn2cccnc12)c1cc2cccc(C#Cc3cnn(C)c3)c2c(=O)n1-c1ccccc1 ... 0.0
CC(=O)c1ccc2c(c1)N(CCCN1CCN(CCO)CC1)c1ccccc1S2 ... 0.0
Cn1c(-c2ccccc2C(F)(F)F)nnc1C12CCC(c3noc(C4CC(F)(F)C4)n3)(CC1)CC2 ... 0.0

====

Recorded activation, one value per entry.
- Study system: Thyrotropin-releasing hormone receptor (Homo sapiens) (UniProt P34981)
- Sequence (P34981 whole entry, looked up): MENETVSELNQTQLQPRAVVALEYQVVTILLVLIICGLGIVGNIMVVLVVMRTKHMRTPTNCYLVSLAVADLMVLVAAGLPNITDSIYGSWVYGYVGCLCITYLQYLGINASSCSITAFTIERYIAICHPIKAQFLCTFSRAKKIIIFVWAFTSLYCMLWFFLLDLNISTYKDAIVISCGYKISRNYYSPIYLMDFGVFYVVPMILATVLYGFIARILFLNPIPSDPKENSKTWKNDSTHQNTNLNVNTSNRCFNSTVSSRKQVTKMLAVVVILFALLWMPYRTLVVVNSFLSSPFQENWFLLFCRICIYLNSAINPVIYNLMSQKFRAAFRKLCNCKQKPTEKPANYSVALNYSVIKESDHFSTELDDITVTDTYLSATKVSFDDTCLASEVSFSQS
- Protocol description: qHTS for Small Molecule Agonists and Allosteric Enhancers of Human TRH Receptor: Validation Screen for Agonists (AID 493127);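 note: intracellular calcium rise by fluo-8 fluorescence before TRH EC20 addition; 0% is about no effect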
- Study conditions: TRH receptor agonist cell assay; at 2 µM; stronger effect = higher value
Active and inactive are the calls of the source.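 Rule for the calls: active = calcium activation more than 3 SD above the typical response in the agonist read; inactive = the rest.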
Measure: activation

CCC(CO)NC(=O)[C@@H]1C=C2c3cccc4[nH]cc(c34)C[C@H]2N(C)C1 (stereo not given in full) ... -2.81% (inactive)
C[C@]12CC[C@H](OS(=O)(=O)O)CC1=CCC1C2CC[C@]2(C)C(=O)CC[C@@H]12 (stereo not given in full) ... 0.688% (inactive)
CC(C)(O)C1C2OC(=O)C1[C@]1(O)C[C@H]3O[C@]34C(=O)O[C@H]2[C@]14C (stereo not given in full) (tested in a mixture with another compound) ... 0.625% (inactive)
C[C@]12CC[C@H](O)CC1=CCC1C2CC[C@]2(C)C(=O)CC[C@@H]12 (stereo not given in full) ... 0.438% (inactive)
CCCN1CCCC(c2cccc(O)c2)C1 (stereo not given) ... -4.62% (inactive)
C[C@H]1OC[C@@H](C[N+](C)(C)C)O1 ... 24.3% (inactive)
CCCN(CCC)[C@@H]1CCc2c(F)ccc(O)c2C1 ... -2.75% (inactive)
C=CCN1CC[C@@]2(C)c3cc(O)ccc3CC1[C@@H]2C ... 1.19% (inactive)
Oc1ccc2c3c1O[C@H]1[C@@H](O)CC[C@@]4(O)C(C2)N(CC2CCC2)CCC314 (stereo not given in full) ... 1.31% (inactive)
COc1cc(C[C@@H](C)N)c(OC)cc1I ... 0.562% (inactive)

====

- Protocol description: Cellular Toxicity (caspase-3) H-4-II-E (AID 663);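 note: cells exposed to compound for 16 hr before readout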
- Study conditions: H-4-II-E rat hepatoma, scaled: DMSO 0%, 100 µM tamoxifen 100%; series mostly up to 92.2 µM
Results filed as inconclusive are left out. Activity calls are given as the source filed them. The call rests on the fitted dose curve; in most records, active means well fitted activation curve with a large enough effect; inconclusive means small, poorly fitted or top-dose-only effect; inactive means flat fitted curve, though single readings scatter.
Measure: outcome

C=CCOC(C)=O ... inactive
Clc1nc(Cl)nc(Cl)n1 ... inactive
Cc1ccc(O)c(C)c1 ... inactive
c1ccc2c(c1)CCCC2 ... inactive
ClC(Cl)=C(Cl)C(Cl)=C(Cl)Cl ... inactive
CC(C)(c1ccccc1)c1ccc(O)cc1 ... inactive
C=C(C)C#N ... inactive
Cc1cccc([N+](=O)[O-])c1 ... inactive
C1CCC2CCCCC2C1 (stereo not given) ... inactive
ClCBr ... inactive
O=C(Cl)/C=C/C(=O)Cl ... inactive
CNC(=O)O/N=C/C(C)(C)SC ... inactive
CC(C)(OO)c1ccccc1 ... inactive
C=CC(=O)OCC ... inactive
CCSC(=O)Cl ... inactive
CC(=O)[O-].CC(=O)[O-].O.O.O.[Pb+2] ... inactive
c1ccc(-c2ccccc2)cc1 ... inactive
OCC1CO1 (stereo not given) ... inactive
CCCCCCCC(=O)Cl ... inactive
Cc1ccc2ccccc2c1 ... inactive
O=NN(c1ccccc1)c1ccccc1 ... inactive
COC1=CC(=O)O[C@@H](/C=C/c2ccc3c(c2)OCO3)C1 ... inactive
C=CC(N)=O ... inactive
C[N+](C)(C)Cc1ccccc1 ... inactive
ClC(Cl)(Cl)c1ccccc1 ... inactive
CC(C)(C)OOC(C)(C)C ... inactive
N#CCCCl ... inactive
CCNc1nc(Cl)nc(NC(C)C)n1 ... inactive
CC(O)CCl (stereo not given) ... inactive
Nc1c(Cl)c(Cl)nc(C(=O)O)c1Cl ... inactive
CCCSC(=O)Cl ... inactive
[O-][Br+2]([O-])O ... inactive
CCCOC(=O)c1ccccc1C(=O)OCCC ... inactive
CCC[CH2][Sn]([Cl])([Cl])[Cl] ... inactive
ClC1=C(Cl)C2(Cl)C3C4CC(C5OC45)C3C1(Cl)C2(Cl)Cl (stereo not given) ... inactive

====

- Protocol description: G06 Cancer Cell Toxicity qHTS against the NCATS CANVASS Library (AID 1347368); note: nearly all actives have a fitted effect of over 60% in size
- Study conditions: G06 dog glioma cells, viability ATP luminescence, 72 h; series mostly up to 46.1 µM
Records with an inconclusive call do not appear. Active and inactive are the calls of the source. Calls come from the whole dose curve; as a rule, active = well fitted cell-killing curve with a large enough effect; inconclusive = small, poorly fitted or top-dose-only effect; inactive = flat fitted curve, though single readings scatter.
Classes used: Yes = active, No = inactive

COC1=C(C2=C(OC)C(=O)c3cc4c(c(O)c3C2=O)C(=O)O[C@H](C)C4)C(=O)c2c(cc3c(c2O)C(=O)O[C@H](C)C3)C1=O ... No
CCCC[C@@H]1CC[C@H]2CCCC(CCCO)N12 (stereo partly drawn) ... No
C[C@]12CCC3[C@@H](CC[C@@H]4C[C@@H](O)CC[C@]34CO)[C@@]1(O)CC[C@@H]2C1=CC(=O)OC1 (stereo partly drawn) ... Yes
CC[C@@H]1CN2CCC3(Nc4cccc(OC)c4C3=O)[C@@H]2C[C@@H]1/C(=C\OC)C(=O)OC (stereo partly drawn) ... No
CCCCC1CC[C@H]2CCCC(CCC)N12 (stereo partly drawn) ... No
CCCC[C@@H](C)/C=C1/CN2CCC[C@H]2[C@@](C)(O)[C@@H]1O ... No
CCC(=O)N[C@@H](C[C@H](C)C(Cl)(Cl)Cl)C(=O)N1C(=O)C=C(OC)[C@@H]1C[C@H](C)C(Cl)Cl ... No
C/C=C1/CN2C3CC1C1=CCC(=O)N4c5ccccc5[C@@]3(C[C@@H]2C2=C[C@H]3C5CC6N(CC[C@@]67c6ccccc6N(C2=O)[C@@H]37)C/C5=C/C)[C@H]14 (stereo partly drawn) ... Yes

====

- Study system: Luciferin 4-monooxygenase (Photinus pyralis)
- Protocol description: Biochemical firefly luciferase enzyme assay for NPC (AID 624030); note: nearly all actives have a fitted effect of over 70% in size
- Study conditions: purified P. pyralis luciferase, luminescence, 5 min; series mostly up to 58.6 µM
Inconclusive results are not listed. The source made the active and inactive calls. Calls follow the shape of the dose curve; as a rule, active = well fitted inhibition curve with a large enough effect; inconclusive = small, poorly fitted or top-dose-only effect; inactive = flat fitted curve, though single readings scatter.
Classes used: active, inactive

CC([C@H](O)c1ccccc1)N(C)C (stereo partly drawn) ... inactive
CC[C@@]1(c2ccc(N)cc2)CCC(=O)NC1=O ... inactive
C[C@@]12CC[C@H]3[C@@H](CC[C@@H]4C[C@H]5S[C@H]5C[C@]43C)[C@H]1CC[C@H]2O ... inactive
CCCC[N+]1(C)C2CC(OC(=O)C(CO)c3ccccc3)CC1C1OC12 (stereo not drawn) ... inactive
O=C1C=C2C=CC3C[C@@]2(O1)C1CCCCN31 (stereo partly drawn) ... inactive
CC(C)(O)C1C2OC(=O)C1[C@]1(O)C[C@H]3O[C@]34C(=O)O[C@H]2[C@]14C (stereo partly drawn) (tested in a mixture with another compound) ... inactive
C[C@H](N)[C@@H](O)c1ccccc1 ... inactive
CC12CCC3C(CCC4=C(O)C(=O)CCC43C)C1CCC2=O (stereo not drawn) ... inactive
C[C@@H]1O[C@H](O[C@@H]2C=C3CC[C@H]4[C@@H](CC[C@]5(C)[C@@H](c6ccc(=O)oc6)CC[C@]45O)[C@@]3(C)CC2)[C@@H](O)[C@H](O)[C@@H]1O ... inactive
[Hg+][c]1ccccc1 ... active
C[C@H](NC(C)(C)C)C(=O)c1cccc(Cl)c1 ... inactive
C[N+]1([O-])[C@@H]2CC(OC(=O)[C@@H](CO)c3ccccc3)C[C@@H]1[C@H]1O[C@H]12 (stereo partly drawn) ... inactive
CN[C@@H](C)[C@H]1CC[C@@H](N)[C@@H](O[C@@H]2[C@@H](O)[C@@H](O[C@H]3OC[C@@](C)(O)[C@@H](NC)[C@@H]3O)[C@H](N)C[C@@H]2N)O1 (tested in a mixture with another compound) ... inactive
NCC[C@H](O)C(=O)N[C@H]1C[C@@H](N)[C@@H](O[C@H]2O[C@@H](CN)[C@@H](O)[C@@H](O)[C@@H]2N)[C@@H](O[C@H]2O[C@@H](CO)[C@@H](O)[C@@H]2O)[C@@H]1O ... inactive
CNC[C@H](O)c1ccc(O)cc1 ... inactive
COc1cc(N)c(Cl)cc1C(=O)N[C@@H]1CN2CCC1CC2 ... inactive
C[C@H]1CN(C2CCC(C#N)(c3ccc(F)cc3)CC2)CC[C@@]1(C(=O)O)c1ccccc1 (stereo partly drawn) ... inactive
C[C@H]1C2Cc3ccc(O)cc3[C@]1(C)CCN2CC1CC1 ... inactive
